Catalogue of compounds with associated EC50
Test system: 18f-NLuc reporter virus (HM175/18f HAV)
test_summary: Antiviral activity against human hepatitis A virus, 18f-NLuc reporter virus in Huh-7 cells
Assay type: cell-based, Human Hepatitis A Virus (Hepatovirus A)
condition_label: read-out: EC50 HAV; Huh-7 cells, 18f-NLuc virus, 48 hrs
Answer with a number only, understood to be in nM.

In: Please give the measured EC50 for this compound: COc1cc2c(cc1OCCCCCCCCC(=O)O)C[C@@H](C(C)C)n1cc(C(=O)O)c(=O)cc1-2 [Example B]
Out: 63

In: Find the recorded EC50 belonging to COc1cc2c(cc1OCCCCCCCCC(=O)O)C[C@@H](C(C)C)n1cc(C(=O)O)c(=O)cc1-2 [Example H] and report it.
Out: 18.2

In: Please give the measured EC50 for this compound: COc1cc2c(cc1OCCCCCCCCC(=O)O)C[C@@H](C(C)C)n1cc(C(=O)O)c(=O)cc1-2 [Example A]
Out: 67

* * *

test_summary: in vitro
Assay type: cell-based
condition_label: human
outcome_measure: CC50 at 48 h

COc1cc2c(cc1OCCCCCCCCC(=O)O)C[C@@H](C(C)C)n1cc(C(=O)O)c(=O)cc1-2 | > 10 µM

Consider the additional compound presented here.
In: What does the record list as CC50 at 48 h for COc1cc2c(cc1OCCCCCCC(=O)O)C[C@@H](C(C)C)n1cc(C(=O)O)c(=O)cc1-2 ?
Out: > 10 µM
